Data origin: PubChem BioAssay

target: Short transient receptor potential channel 4 (Mus musculus) (UniProt Q9QUQ5); assay: calcium flux activators in TRPC4/5HT1a cells, counter-screen for TRPC4 activator project, cell-based, second counter screen, HEK293 TRPC4/5HT1a, Fluo-4 (AID 434977); details: Fluo-4 calcium flux, at 10 µM
Activity calls are given as the source filed them.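 Rule for the calls: active = calcium signal rise above buffer-control mean plus 5 SD in both duplicates, and also a hit in the primary screen; inactive = the rest.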
# valid calls are 1 (yes) = active, 0 (no) = inactive; nothing else

Recorded results for 3 compounds are shown here.
compound	class name
COc1ccc(C(CNC(=O)C2CCN(S(=O)(=O)c3ccc(F)cc3)CC2)N(C)C)cc1 (stereo unspecified)	0 (no)
CN(C)C(CNC(=O)NC1CCCCC1)c1cccnc1 (stereo unspecified)	0 (no)
COc1cc(CNCCc2ccc(F)cc2)ccc1OCc1ccc(Cl)nc1	0 (no)

Next:
What is the recorded call for this compound in the test? COc1ccccc1NC(=O)CSc1n[nH]c(-c2ccccn2)n1
0 (no)
